- measurementTarget: Beta-secretase 1 (Homo sapiens)
- method: Inhibition of BACE1
pIC50: −log10 of the molar value.
Label rule, in plain words: pIC50 of 6 and up is Satisfied, under 6 is Not satisfied.

In: Hello, I need to know if `C[C@@H](NC(=O)c1cc(COC[C@](C)(N)Cc2ccccc2)cc(N(C)S(C)(=O)=O)c1)c1ccc(F)cc1` has measured pIC50 not below 6. Thanks!
Out: Satisfied

In: Does the reported pIC50 for C[C@@H](NC(=O)c1cc(CNC(=O)C(C)(N)Cc2ccccc2)cc(N(C)S(C)(=O)=O)c1)c1ccc(F)cc1 (some centres not stated) fall at or above the 6 mark?
Out: Not satisfied

In: Reported pIC50 reaches at least 6 for C[C@@H](NC(=O)c1cc(N(C)S(C)(=O)=O)cc(S(=O)(=O)CCC(N)(CO)Cc2ccccc2)c1)c1ccc(F)cc1 (some centres not stated) ?
Out: Not satisfied

In: Is pIC50 at least 6? Consider C[C@@H](NC(=O)c1cc(COC(=O)C(N)(CO)Cc2ccccc2)cc(N(C)S(C)(=O)=O)c1)c1ccc(F)cc1 (some centres not stated)
Out: Satisfied

In: Answer whether pIC50 of COCC(N)(COCc1cc(C(=O)N[C@H](C)c2ccc(F)cc2)cc(N(C)S(C)(=O)=O)c1)Cc1ccccc1 (mixture of isomers) is greater than or equal to 6.
Out: Not satisfied

In: For this molecule, is measured pIC50 6 or higher? `C[C@@H](NC(=O)c1cc(-c2noc([C@](C)(N)Cc3ccccc3)n2)cc(N(C)S(C)(=O)=O)c1)c1ccc(F)cc1`
Out: Not satisfied

In: Please tell me: is the molecule `C[C@@H](NC(=O)c1cc(N(C)S(C)(=O)=O)cc(-n2cc([C@](C)(N)Cc3ccccc3)nn2)c1)c1ccc(F)cc1` at or over 6 in terms of pIC50?
Out: Not satisfied

----------
- measurementTarget: Beta-secretase 1 (Homo sapiens, UniProt P56817)
- Sequence (P56817 whole entry): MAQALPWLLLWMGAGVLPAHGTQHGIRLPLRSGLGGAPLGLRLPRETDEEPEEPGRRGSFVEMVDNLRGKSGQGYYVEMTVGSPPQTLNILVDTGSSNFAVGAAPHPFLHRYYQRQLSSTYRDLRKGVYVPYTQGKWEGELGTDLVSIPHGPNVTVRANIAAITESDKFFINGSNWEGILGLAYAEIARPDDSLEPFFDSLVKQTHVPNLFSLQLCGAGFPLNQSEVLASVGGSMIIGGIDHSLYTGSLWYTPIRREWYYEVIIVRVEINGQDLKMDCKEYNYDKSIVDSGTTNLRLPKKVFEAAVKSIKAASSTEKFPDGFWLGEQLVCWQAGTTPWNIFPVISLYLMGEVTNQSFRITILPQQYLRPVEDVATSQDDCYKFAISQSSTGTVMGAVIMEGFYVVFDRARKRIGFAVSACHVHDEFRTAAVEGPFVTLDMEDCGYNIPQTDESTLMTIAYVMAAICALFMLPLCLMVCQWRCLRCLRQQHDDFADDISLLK
- method: Inhibition of human BACE1 expressed in mouse fibroblast cells assessed as inhibition of secreted APPbeta-NF production at pH 7.2
- Format: cell-based
The following ranges of IC50 define the classes used here: bin A = under 200 nM, bin B = from 200 nM up to 700 nM, bin C = 700 nM and over

In: Which band does `C[C@@H](NC(=O)c1cc(-c2ncc([C@](C)(N)Cc3ccccc3)o2)cc(N(C)S(C)(=O)=O)c1)c1ccc(F)cc1` fall in?
Out: bin A

In: Any idea which band `C[C@@H](NC(=O)c1cc(CNC[C@](N)(CO)Cc2ccccc2)cc(N(C)S(C)(=O)=O)c1)c1ccc(F)cc1` is in?
Out: bin C

In: Lab log: `C[C@@H](NC(=O)c1cc(COC[C@H](N)Cc2ccccc2)cc(N(C)S(C)(=O)=O)c1)c1ccc(F)cc1` — assign IC50 category
Out: bin C

In: Entry `C[C@@H](NC(=O)c1cc(COC[C@](N)(CO)Cc2ccccc2)cc(N(C)S(C)(=O)=O)c1)c1ccc(F)cc1` belongs to which category?
Out: bin B

In: Please classify: C[C@@H](NC(=O)c1cc(COCC(N)(CF)Cc2ccccc2)cc(N(C)S(C)(=O)=O)c1)c1ccc(F)cc1 (mixture of isomers)
Out: bin B

In: # bin lookup: classify `C[C@@H](NC(=O)c1cc(-c2n[nH]c([C@](C)(N)Cc3ccccc3)n2)cc(N(C)S(C)(=O)=O)c1)c1ccc(F)cc1` by its IC50
Out: bin C

In: Category lookup for the molecule C[C@@H](NC(=O)c1cc(-c2ccc(C(C)(N)Cc3ccccc3)o2)cc(N(C)S(C)(=O)=O)c1)c1ccc(F)cc1 (mixture of isomers)
Out: bin A

In: Categorize the following entry: C[C@@H](NC(=O)c1cc(COC(=O)C(C)(N)Cc2ccccc2)cc(N(C)S(C)(=O)=O)c1)c1ccc(F)cc1 (stereo partly specified)
Out: bin A

In: Which category does the recorded IC50 put C[C@@H](NC(=O)c1cc(COCC(N)(Cc2ccccc2)C(F)F)cc(N(C)S(C)(=O)=O)c1)c1ccc(F)cc1 (mixture of isomers) in?
Out: bin C

In: Form field 'band' for `C[C@@H](NC(=O)c1cc(COC[C@](C)(N)Cc2ccccc2)cc(N(C)S(C)(=O)=O)c1)c1ccc(F)cc1`
Out: bin A

----------
- measurementTarget: UniProtKB P56817
- method: Inhibition of BACE1
Answer each item with its documented IC50.
Write the number in nM without appending the unit.

Sample `C[C@@H](NC(=O)c1cc(COC[C@](N)(CO)Cc2ccccc2)cc(N(C)S(C)(=O)=O)c1)c1ccc(F)cc1` ; IC50 observed: 1370

Documented IC50 of C[C@@H](NC(=O)c1cc(COC(=O)C(C)(N)Cc2ccccc2)cc(N(C)S(C)(=O)=O)c1)c1ccc(F)cc1 (some centres undefined) : 19

Measured IC50, C[C@@H](NC(=O)c1cc(-c2ccc(C(C)(N)Cc3ccccc3)o2)cc(N(C)S(C)(=O)=O)c1)c1ccc(F)cc1 (mixture of isomers) : 20

----------
- measurementTarget: Beta-secretase 1 (Homo sapiens, UniProt P56817)
- method: Inhibition of BACE1
property: IC50 (µM)
Use µM as the unit, but write only the number.

Lab book: IC50 of `C[C@@H](NC(=O)c1cc(-c2ncc([C@](C)(N)Cc3ccccc3)o2)cc(N(C)S(C)(=O)=O)c1)c1ccc(F)cc1` noted as 0.007

According to the records, this compound C[C@@H](NC(=O)c1cc(COCC(N)(CF)Cc2ccccc2)cc(N(C)S(C)(=O)=O)c1)c1ccc(F)cc1 (mixture of isomers) displays IC50 of 0.997

Sample `C[C@@H](NC(=O)c1cc(COC[C@H](N)Cc2ccccc2)cc(N(C)S(C)(=O)=O)c1)c1ccc(F)cc1` ; IC50 observed: 10.1

Briefly, IC50 measured for C[C@@H](NC(=O)c1cc(C(=O)NCC(N)(CO)Cc2ccccc2)cc(N(C)S(C)(=O)=O)c1)c1ccc(F)cc1 (some centres not stated) : 10.8

Recorded result, `C[C@@H](NC(=O)c1cc(-c2nc([C@](C)(N)Cc3ccccc3)no2)cc(N(C)S(C)(=O)=O)c1)c1ccc(F)cc1` , IC50: 1.83

Documented IC50 of C[C@@H](NC(=O)c1cc(C(=O)NCC(O)(CO)Cc2ccccc2)cc(N(C)S(C)(=O)=O)c1)c1ccc(F)cc1 (some centres not stated) : 24.9

The reported value for `C[C@@H](NC(=O)c1cc(-c2n[nH]c([C@](C)(N)Cc3ccccc3)n2)cc(N(C)S(C)(=O)=O)c1)c1ccc(F)cc1` in terms of IC50 is 0.822

Value of IC50 reported for the compound CCC(N)(COCc1cc(C(=O)N[C@H](C)c2ccc(F)cc2)cc(N(C)S(C)(=O)=O)c1)Cc1ccccc1 (mixture of isomers) is 22

Given item `C[C@@H](NC(=O)c1cc(CNC[C@](N)(CO)Cc2ccccc2)cc(N(C)S(C)(=O)=O)c1)c1ccc(F)cc1` , the value recorded as its IC50 is 10.1

# IC50 of C[C@@H](NC(=O)c1cc(COCC(N)(Cc2ccccc2)C(F)F)cc(N(C)S(C)(=O)=O)c1)c1ccc(F)cc1 (mixture of isomers) = 0.925

Entry C[C@@H](NC(=O)c1cc(C(=O)OCC(O)(CN)Cc2ccccc2)cc(N(C)S(C)(=O)=O)c1)c1ccc(F)cc1 (some centres not stated) , IC50 reported as 22.2

Record summary for `C[C@@H](NC(=O)c1cc(-c2nnc([C@](C)(N)Cc3ccccc3)s2)cc(N(C)S(C)(=O)=O)c1)c1ccc(F)cc1` : reported IC50 = 29.9

Record `C[C@@H](NC(=O)c1cc(CCC[C@](N)(CO)Cc2ccccc2)cc(N(C)S(C)(=O)=O)c1)c1ccc(F)cc1` . Reported IC50: 22.4

Form: compound = C[C@@H](NC(=O)c1cc(OCCC(N)(CO)Cc2ccccc2)cc(N(C)S(C)(=O)=O)c1)c1ccc(F)cc1 (some centres not stated) ; IC50 = 70.5

Quick note, IC50 for C[C@@H](NC(=O)c1cc(CNC(=O)C(N)(CO)Cc2ccccc2)cc(N(C)S(C)(=O)=O)c1)c1ccc(F)cc1 (some centres not stated) landed at 18.1
